Source listed as patent US7713994B2.

system: cyclin D1/cdk 4 enzyme (Homo sapiens)
Construct: made in house; host or cells: Sf9 insect cells, recombinant baculovirus
Sequence (P11802 whole entry, species assumed): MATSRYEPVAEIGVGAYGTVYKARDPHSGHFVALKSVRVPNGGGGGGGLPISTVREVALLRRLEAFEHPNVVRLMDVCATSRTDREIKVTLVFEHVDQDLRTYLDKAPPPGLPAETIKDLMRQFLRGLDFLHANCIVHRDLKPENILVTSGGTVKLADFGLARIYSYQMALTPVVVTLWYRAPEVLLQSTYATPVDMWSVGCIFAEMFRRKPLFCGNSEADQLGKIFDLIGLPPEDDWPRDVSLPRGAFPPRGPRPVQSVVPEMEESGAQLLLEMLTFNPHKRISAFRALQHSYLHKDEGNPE
Sequence (P24385 whole entry partner, species assumed): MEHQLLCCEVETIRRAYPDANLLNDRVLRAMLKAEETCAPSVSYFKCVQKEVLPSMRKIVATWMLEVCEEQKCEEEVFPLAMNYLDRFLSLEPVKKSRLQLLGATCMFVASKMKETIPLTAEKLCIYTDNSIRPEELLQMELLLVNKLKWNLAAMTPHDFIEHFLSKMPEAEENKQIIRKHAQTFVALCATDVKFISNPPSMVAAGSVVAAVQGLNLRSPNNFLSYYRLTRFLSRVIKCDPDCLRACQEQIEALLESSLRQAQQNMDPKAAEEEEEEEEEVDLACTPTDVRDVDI
test protocol: CDK4 ELISA kinase assay (phospho-Rb ser 795 detection)
Assay type: biochemical
applied conditions: In Vitro Enzyme Assay, cyclin D1/cdk 4, read-out: CDK4 IC50
Labelling field: enter Satisfied if recorded IC50 is less than 2 µM. Enter Not satisfied if it equals or exceeds that cut-off.

> print(dat)
                                     smiles  assigned.label
1  CN1CCN(c2ccc(NC=C3C(=O)NC(=O)c4ccc(-c5cc6ccccc6o5)cc43)cc2)CC1   Not satisfied

Q: Could you please tell me whether IC50 recorded for `CN(C)c1ccc(-c2ccc3c(c2)C(=CNCc2ccc(O)c(O)c2)C(=O)NC3=O)cc1` is less than 2 µM?
A: Satisfied

Q: Same for `O=C1NC(=O)c2ccccc2C1=CNCc1cccc(NCC(F)(F)F)c1`
A: Not satisfied
